- Assay target: Sodium-dependent dopamine transporter (Homo sapiens) (UniProt Q01959)
- Sequence (Q01959 whole entry): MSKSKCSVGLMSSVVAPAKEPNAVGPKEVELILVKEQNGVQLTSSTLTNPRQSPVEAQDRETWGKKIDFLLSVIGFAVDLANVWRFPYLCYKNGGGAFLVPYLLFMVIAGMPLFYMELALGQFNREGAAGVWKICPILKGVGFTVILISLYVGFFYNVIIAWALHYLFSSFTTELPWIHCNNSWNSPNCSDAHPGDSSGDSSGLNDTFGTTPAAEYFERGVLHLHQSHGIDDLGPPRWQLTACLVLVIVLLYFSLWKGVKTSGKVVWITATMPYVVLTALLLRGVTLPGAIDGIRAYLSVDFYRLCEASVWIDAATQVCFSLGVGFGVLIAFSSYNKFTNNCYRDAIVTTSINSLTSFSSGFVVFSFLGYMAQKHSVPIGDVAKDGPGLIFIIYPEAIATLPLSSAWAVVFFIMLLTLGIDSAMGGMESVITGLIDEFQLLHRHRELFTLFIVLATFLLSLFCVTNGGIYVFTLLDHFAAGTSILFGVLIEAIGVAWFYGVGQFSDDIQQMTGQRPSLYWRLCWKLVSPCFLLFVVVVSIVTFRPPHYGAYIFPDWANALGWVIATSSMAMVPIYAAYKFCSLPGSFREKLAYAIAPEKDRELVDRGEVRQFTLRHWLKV
- Test protocol: Displacement of [3H]WIN-35428 from human DAT expressed in CHO cells
- Format: cell-based
- Condition set: concentration not given here
inhibition by entry:

| Molecule | Assay target | Units label | inhibition |
| --- | --- | --- | --- |
| CNC[C@@H](O)[C@H](c1cccc(F)c1)n1ccc2cccc(F)c21 | Sodium-dependent dopamine transporter (Homo sapiens) (UniProt Q01959) | % | 8 |
| CNC[C@@H](O)[C@H](c1cccc(F)c1)n1ccc2ccccc21 | Sodium-dependent dopamine transporter (Homo sapiens) (UniProt Q01959) | % | 23 |
| CNC[C@@H](O)[C@H](c1ccc(F)cc1)n1ccc2ccccc21 | Sodium-dependent dopamine transporter (Homo sapiens) (UniProt Q01959) | % | 11 |
| CNC[C@@H](O)[C@H](c1cccc(F)c1)n1ccc2ccc(Cl)cc21 | Sodium-dependent dopamine transporter (Homo sapiens) (UniProt Q01959) | % | 9 |
| CNC[C@@H](O)[C@H](c1cccc(C(F)(F)F)c1)n1ccc2ccccc21 | Sodium-dependent dopamine transporter (Homo sapiens) (UniProt Q01959) | % | 14 |
| CNC[C@@H](O)[C@H](c1cccc(F)c1)n1ccc2c(F)cccc21 | Sodium-dependent dopamine transporter (Homo sapiens) (UniProt Q01959) | % | 3 |
| CNC[C@@H](O)[C@H](c1cccc(F)c1)n1ccc2cc(Cl)ccc21 | Sodium-dependent dopamine transporter (Homo sapiens) (UniProt Q01959) | % | 6 |
| CNCC[C@H](c1cccc(F)c1)n1ccc2ccccc21 | Sodium-dependent dopamine transporter (Homo sapiens) (UniProt Q01959) | % | 52 |
| CNC[C@@H](O)[C@H](c1cccc(F)c1)n1ccc2cc(Br)ccc21 | Sodium-dependent dopamine transporter (Homo sapiens) (UniProt Q01959) | % | 10 |
| CNC[C@@H](O)[C@H](c1ccc(Cl)cc1)n1ccc2ccccc21 | Sodium-dependent dopamine transporter (Homo sapiens) (UniProt Q01959) | % | 16 |
| CNC[C@@H](O)[C@H](c1cccc(Br)c1)n1ccc2ccccc21 | Sodium-dependent dopamine transporter (Homo sapiens) (UniProt Q01959) | % | 13 |
| CNC[C@@H](O)[C@H](c1cccc(F)c1)n1ccc2cccc(Br)c21 | Sodium-dependent dopamine transporter (Homo sapiens) (UniProt Q01959) | % | 0 |
| CNC[C@@H](O)[C@H](c1ccccc1F)n1ccc2ccccc21 | Sodium-dependent dopamine transporter (Homo sapiens) (UniProt Q01959) | % | 4 |
| CNC[C@@H](O)[C@H](c1cccc(F)c1)n1ccc2cc(C)ccc21 | Sodium-dependent dopamine transporter (Homo sapiens) (UniProt Q01959) | % | 0 |
| CNC[C@@H](O)[C@H](c1cccc(Cl)c1)n1ccc2ccccc21 | Sodium-dependent dopamine transporter (Homo sapiens) (UniProt Q01959) | % | 20 |
| CNC[C@@H](O)[C@H](c1cccc(C)c1)n1ccc2ccccc21 | Sodium-dependent dopamine transporter (Homo sapiens) (UniProt Q01959) | % | 8 |
| CNC[C@@H](O)[C@H](c1cccc(F)c1)n1cc(C)c2ccccc21 | Sodium-dependent dopamine transporter (Homo sapiens) (UniProt Q01959) | % | 8 |
| CNC[C@@H](O)[C@H](c1cccc(F)c1)n1ccc2cc(F)ccc21 | Sodium-dependent dopamine transporter (Homo sapiens) (UniProt Q01959) | % | 9 |
| CNCC[C@H](c1ccccc1)n1ccc2ccccc21 | Sodium-dependent dopamine transporter (Homo sapiens) (UniProt Q01959) | % | 44 |
| CNC[C@@H](O)[C@H](c1cccc(OC)c1)n1ccc2ccccc21 | Sodium-dependent dopamine transporter (Homo sapiens) (UniProt Q01959) | % | 0 |
| CNC[C@@H](O)[C@H](c1cccc(F)c1)n1ccc2ccc(Br)cc21 | Sodium-dependent dopamine transporter (Homo sapiens) (UniProt Q01959) | % | 12 |
| CCc1cn([C@@H](c2cccc(F)c2)[C@H](O)CNC)c2ccccc12 | Sodium-dependent dopamine transporter (Homo sapiens) (UniProt Q01959) | % | 0 |

###

- Assay target: Sodium-dependent dopamine transporter (Homo sapiens) (UniProt Q01959)
- Test protocol: Displacement of [3H]WIN-35428 from human DAT expressed in CHO cells
- Type: cell-based
- Condition set: concentration not given here
Value kind: inhibition (%)

| Molecule | Value kind | Units label | Reported |
| --- | --- | --- | --- |
| CNC[C@@H](O)[C@H](c1cccc(F)c1)n1ccc2c(Br)cccc21 | inhibition | % | 24 |
| CNC[C@@H](O)[C@H](c1cccc(F)c1)n1ccc2c(Cl)cccc21 | inhibition | % | 12 |
| CNC[C@@H](O)[C@H](c1ccccc1C)n1ccc2ccccc21 | inhibition | % | 11 |

###

Ratio IC50 by entry:
- Species: Homo sapiens
- Test protocol: Selectivity ratio, IC50 for human SERT to IC50 for human NET
Value kind: Ratio IC50

| Molecule | Reported |
| --- | --- |
| CNC[C@@H](O)[C@H](c1ccc(Cl)cc1)n1ccc2ccccc21 | 1 |
| CNC[C@@H](O)[C@H](c1cccc(F)c1)n1ccc2ccc(Cl)cc21 | 9 |
| CNC[C@@H](O)[C@H](c1cccc(F)c1)n1ccc2ccc(F)cc21 | 31 |
| CNC[C@@H](O)[C@H](c1cccc(F)c1)n1ccc2cc(Br)ccc21 | 1 |
| CNC[C@@H](O)[C@H](c1ccccc1Cl)n1ccc2ccccc21 | 4 |
